Molecular target: SRC (Homo sapiens)
Experiment: Inhibition of a panel of kinases, in vitro HotSpot kinase assay: SRC
Assay type: biochemical
Conditions: D-compounds panel data; 1 μM ATP
pIC50: −log10 of the molar value.

SAMPLE SMILES: Cn1cc(Nc2nc(N3CCC[C@@H]4[C@H]3CCN4C(=O)c3ccc(C4CC4)cc3)cnc2C(N)=O)cn1
pIC50: 5.00 to 6.00
//
SAMPLE SMILES: C[C@@H]1[C@H](NC(=O)c2ccc(C3CC3)cc2)CCCN1c1cnc(C(N)=O)c(Nc2cnn(C)c2)n1
pIC50: 6.00 to 7.00
//
SAMPLE SMILES: C[C@@H]1[C@H](NC(=O)c2ccc(C(F)(F)F)cn2)CCCN1c1cnc(C(N)=O)c(Nc2cnn(C)c2)n1
pIC50: 7.00 to 8.00
//
SAMPLE SMILES: C[C@@H]1[C@H](NC(=O)c2ccc(C3CC3)cc2)CCCN1c1cnc(C(N)=O)c(Nc2cnn(CC#N)c2)n1
pIC50: 6.00 to 7.00
//
SAMPLE SMILES: C[C@@H]1[C@H](NC(=O)c2ccc(C3CC3)cc2F)CCCN1c1cnc(C(N)=O)c(Nc2cnn(C)c2)c1
pIC50: 6.00 to 7.00
//
SAMPLE SMILES: Cc1ccc(-c2cnc([C@H]3CCCN(c4cnc(C(N)=O)c(Nc5cc(C)ns5)n4)C3)[nH]2)cc1
pIC50: 6.00 to 7.00
//
SAMPLE SMILES: CC(=O)N1CCN(c2ccc(Nc3nc(N4CCC[C@@H](NC(=O)c5ccc(C6CC6)cc5)[C@H]4C)cnc3C(N)=O)cc2)CC1
pIC50: 7.00 to 8.00
//
SAMPLE SMILES: C[C@@H]1[C@H](NC(=O)c2ccc(C3CC3)cc2F)CCCN1c1cnc(C(N)=O)c(Nc2ccc(CN3CCN(C)CC3)cc2)c1
pIC50: 5.00 to 6.00
//
SAMPLE SMILES: C[C@@H]1[C@H](NC(=O)c2ccc(SC(F)(F)F)cc2)CCCN1c1cnc(C(N)=O)c(Nc2ccc(N3CCN(C)CC3)cc2)n1
pIC50: 7.00 to 8.00
//
SAMPLE SMILES: Cc1cc(Nc2nc(N3CCC[C@@H](NC(=O)c4ccc(C(C)(C)O)cc4)C3)cnc2C(N)=O)sn1
pIC50: 6.00 to 7.00
//
SAMPLE SMILES: CN(C)c1ccc2c(c1)CCN([C@@H]1CCCN(c3cnc(C(N)=O)c(Nc4cnn(C)c4)n3)C1)C2=O
pIC50: 6.00 to 7.00
//
SAMPLE SMILES: Cn1cc(Nc2nc(N3CCC(F)(F)[C@@H](NC(=O)c4ccc(C5CC5)cc4)C3)cnc2C(N)=O)cn1
pIC50: 5.00 to 6.00
//
SAMPLE SMILES: C[C@@H]1[C@H](NC(=O)c2ccc3c(cnn3C)c2)CCCN1c1cnc(C(N)=O)c(Nc2cnn(C)c2)n1
pIC50: 7.00 to 8.00
//
SAMPLE SMILES: C[C@@H]1[C@H](NC(=O)c2ccc(C3CC3)c(Cl)c2)CCCN1c1cnc(C(N)=O)c(Nc2ccc(N3CCN(C)CC3)cc2)n1
pIC50: 6.00 to 7.00

====

Target: SRC (Homo sapiens, UniProt P12931)
Sequence (P12931 whole entry): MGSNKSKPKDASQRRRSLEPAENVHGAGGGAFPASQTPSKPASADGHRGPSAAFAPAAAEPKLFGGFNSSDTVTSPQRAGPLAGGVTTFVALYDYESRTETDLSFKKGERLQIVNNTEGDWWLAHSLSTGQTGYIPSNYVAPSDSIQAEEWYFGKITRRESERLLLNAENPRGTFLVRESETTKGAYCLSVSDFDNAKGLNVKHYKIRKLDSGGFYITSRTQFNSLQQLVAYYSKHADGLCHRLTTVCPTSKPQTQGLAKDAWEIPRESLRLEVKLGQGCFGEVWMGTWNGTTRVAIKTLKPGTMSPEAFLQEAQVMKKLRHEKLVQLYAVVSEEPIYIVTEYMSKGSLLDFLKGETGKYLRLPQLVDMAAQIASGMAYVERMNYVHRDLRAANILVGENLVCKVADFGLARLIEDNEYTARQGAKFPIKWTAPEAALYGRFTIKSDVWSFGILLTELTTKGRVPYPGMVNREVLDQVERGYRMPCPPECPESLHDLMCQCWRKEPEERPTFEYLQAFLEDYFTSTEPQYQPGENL
Assay: Inhibition of a panel of kinases, in vitro HotSpot kinase assay: SRC
Assay type: biochemical
Conditions: D-compounds panel data; 1 μM ATP
MEASURED ATTRIBUTE: IC50

COMPOUND: C[C@@H]1[C@H](NC(=O)c2ccc3nccn3c2)CCCN1c1cnc(C(N)=O)c(Nc2cnn(C)c2)n1 [Example D-266]
TARGET SYSTEM: SRC (Homo sapiens, UniProt P12931)
MEASURED ATTRIBUTE: IC50
RESULT: 10 to 100 nM

COMPOUND: C[C@@H]1[C@H](NC(=O)c2ccc(C3CC3)cc2)CCCN1c1cnc(C(N)=O)c(Nc2ccc(OC3C[C@H]4CC[C@@H](C3)N4C)cc2)n1 (stereo partly drawn) [Example D-104]
TARGET SYSTEM: SRC (Homo sapiens, UniProt P12931)
MEASURED ATTRIBUTE: IC50
RESULT: 10 to 100 nM

COMPOUND: Cc1cc(Nc2cc(N3CCC[C@@H](NC(=O)N(C)C)[C@H]3C)cnc2C(N)=O)sn1 [Example D-175]
TARGET SYSTEM: SRC (Homo sapiens, UniProt P12931)
MEASURED ATTRIBUTE: IC50
RESULT: 100 to 1000 nM

COMPOUND: C[C@@H]1[C@H](NC(=O)c2ccc(C3CC3)nc2)CCCN1c1cnc(C(N)=O)c(Nc2cnn(C)c2)n1 [Example D-18]
TARGET SYSTEM: SRC (Homo sapiens, UniProt P12931)
MEASURED ATTRIBUTE: IC50
RESULT: 10 to 100 nM

COMPOUND: C[C@@H]1[C@H](NC(=O)c2ccc(C3CC3)cc2)CCCN1c1cnc(C(N)=O)c(Nc2cnn(C(F)F)c2)n1 [Example D-275]
TARGET SYSTEM: SRC (Homo sapiens, UniProt P12931)
MEASURED ATTRIBUTE: IC50
RESULT: 100 to 1000 nM

COMPOUND: C[C@@H]1[C@H](NC(=O)c2ccc(C3(O)CC3)cc2)CCCN1c1cnc(C(N)=O)c(Nc2cnn(C)c2)n1 [Example D-235]
TARGET SYSTEM: SRC (Homo sapiens, UniProt P12931)
MEASURED ATTRIBUTE: IC50
RESULT: 10 to 100 nM

COMPOUND: C[C@@H]1[C@H](NC(=O)c2ccc(C(C)(C)C)s2)CCCN1c1cnc(C(N)=O)c(Nc2cnn(C)c2)n1 [Example D-229]
TARGET SYSTEM: SRC (Homo sapiens, UniProt P12931)
MEASURED ATTRIBUTE: IC50
RESULT: 100 to 1000 nM
